// values below are reported Mouse Hepatic Microsome CLh,int NADPH(-)
assay: Metabolic stability test: liver microsomal stability assay; format: in vitro ADME, mouse; conditions: mouse liver microsomes 0.5 mg protein/mL, compound 1 µM, absence of NADPH
Starred links: 1 amine or outer side, 2 acyl side, 3 side chain; linkers in the order of their positions; H or OH if unused. Positions of bridges follow the written chain, without caps; N, C: chain ends. Non-standard residues stand in square brackets, D forms with d. Residues, ends and D or L forms follow the SMILES beside them. *: point of attachment. NMedβ3hAla = C[C@H](CC(=O)[*:2])N(C)[*:1]; NMeF = CN[C@@H](Cc1ccccc1)C(=O)O; NMeI = CC[C@H](C)[C@H](NC)C(=O)O; NMeT = CN[C@H](C(=O)O)[C@@H](C)O; hPhe = N[C@@H](CCc1ccccc1)C(=O)O; NMeβAla = CN(CCC(=O)[*:2])[*:1]; NMeD = CN[C@@H](CC(=O)O)C(=O)O; NMeL = CN[C@@H](CC(C)C)C(=O)O; NMeV = CN[C@H](C(=O)O)C(C)C; d(β3hA) = C[C@@H](N)CC(=O)O; NMeAbu = CC[C@H](NC)C(=O)O; NMeA = CN[C@@H](C)C(=O)O; Piperidide = C1CCN(*)CC1; Abu = CC[C@H](N)C(=O)O; NBuGly = CCCCNCC(=O)O; Sar = CNCC(=O)O; tBu = CC(C)(C)*
Hi! Could you send only the number? It should be in µL/min/mg Protein, unit omitted.

Examples with answers:
>>> meas_value("CC(C)C[C@@H]1NC(=O)[C@H]([C@@H](C)O)N(C)C(=O)[C@@H](C(C)C)NC(=O)C[C@@H](C(=O)N2CCCCC2)NC(=O)[C@H](C(C)C)N(C)C(=O)[C@H](C)N(C)C(=O)[C@H](Cc2ccccc2)N(C)C(=O)[C@@H]2CCCN2C(=O)[C@H](CC(C)C)N(C)C(=O)CN(C)C(=O)[C@H](CCc2ccccc2)NC(=O)[C@H](CC(C)C)N(C)C(=O)[C@H](C(C)C)N(C)C1=O [pd116] ([dV][NMeT]L[NMeV][NMeL][hPhe][Sar][NMeL]P[NMeF][NMeA][NMeV]D-Piperidide; lactam N-13)")
14.9
>>> meas_value("CC[C@@H]1NC(=O)[C@H](C(C)C)N(C)C(=O)[C@H](C)N(C)C(=O)[C@H](C(C)C)N(C)C(=O)[C@H](CC)N(C)C(=O)[C@H](Cc2ccccc2)N(C)C(=O)[C@H]([C@@H](C)O)N(C)C(=O)CNC(=O)[C@H](CC(C)C)N(C)C(=O)[C@H](C(C)C)NC(=O)[C@H](COC(C)(C)C)NC(=O)[C@H](CC(C)C)N(C)C(=O)[C@@H](C(C)C)NC(=O)C[C@@H](C)N(C)C1=O [pd068] (cyclo([Abu][NMedβ3hAla][dV][NMeL]S(tBu)V[NMeL]G[NMeT][NMeF][NMeAbu][NMeV][NMeA][NMeV]))")
12.5
>>> meas_value("CC[C@H](C)[C@H]1C(=O)N[C@@H](CC(C)C)C(=O)N(C)[C@@H](CC(C)C)C(=O)N(C)[C@@H](C(C)C)C(=O)N(C)[C@@H](C)C(=O)N[C@@H]([C@@H](C)O)C(=O)N(C)[C@@H](CC(C)C)C(=O)N[C@H](C)CC(=O)N(C)CCC(=O)N[C@@H](CCc2ccccc2)C(=O)N(C)[C@@H](CC(C)C)C(=O)N2CCC[C@H]2C(=O)N(C)[C@@H](Cc2ccccc2)C(=O)N(C)[C@@H](C)C(=O)N1C [pd060] (cyclo(L[NMeL][NMeV][NMeA]T[NMeL][d(β3hA)][NMeβAla][hPhe][NMeL]P[NMeF][NMeA][NMeI]))")
38.6
>>> meas_value("CC[C@@H]1NC(=O)[C@H](CC(C)C)N(C)C(=O)[C@H]([C@@H](C)O)NC(=O)[C@H](C(C)C)N(C)C(=O)[C@H](C)NC(=O)[C@H](Cc2ccccc2)N(C)C(=O)[C@@H](C(C)C)NC(=O)C[C@@H](C(=O)N2CCCCC2)N(C)C(=O)CN(C)C(=O)[C@H](Cc2ccccc2)N(C)C(=O)[C@H](C)N(C)C(=O)[C@H](COC(C)(C)C)NC(=O)[C@H](CC(C)C)N(C)C(=O)CN(C)C1=O [pd090] ([dV][NMeF]A[NMeV]T[NMeL][Abu][Sar][NMeL]S(tBu)[NMeA][NMeF][Sar][NMeD]-Piperidide; lactam N-14)")
23.9
>>> meas_value("CC[C@H](C)[C@@H]1NC(=O)[C@H](C)N(C)C(=O)C[C@@H](C(=O)N2CCCCC2)NC(=O)[C@H](CC)N(C)C(=O)[C@H](COC(C)(C)C)NC(=O)[C@H](CC(C)C)N(C)C(=O)[C@H](C)N(C)C(=O)[C@H](CC(C)C)N(C)C(=O)[C@H](Cc2ccccc2)N(C)C(=O)CN(C)C(=O)[C@H]([C@@H](C)O)NC(=O)[C@H](CC(C)C)N(C)C(=O)[C@H](Cc2ccccc2)N(C)C1=O [pd121] ([NMeA]I[NMeF][NMeL]T[Sar][NMeF][NMeL][NMeA][NMeL]S(tBu)[NMeAbu]D-Piperidide; lactam N-13)")
18.2
>>> meas_value("CC[C@H](C)[C@@H]1NC(=O)[C@H](CC(C)C)N(C)C(=O)CN(C)C(=O)C[C@@H](C(=O)N2CCCCC2)NC(=O)[C@H](C)N(C)C(=O)CNC(=O)[C@H](C(C)C)N(C)C(=O)[C@H](C)N(C)C(=O)[C@H](Cc2ccccc2)N(C)C(=O)[C@H](CC(C)C)NC(=O)[C@H](Cc2ccccc2)N(C)C(=O)[C@H]([C@@H](C)O)NC(=O)[C@H](CC(C)C)N(C)C1=O [pd115] ([Sar][NMeL]I[NMeL]T[NMeF]L[NMeF][NMeA][NMeV]G[NMeA]D-Piperidide; lactam N-13)")
12.3

# input Supply measured Mouse Hepatic Microsome CLh,int NADPH(-) of CC[C@H](C)[C@@H]1NC(=O)[C@H](C)N(C)C(=O)C[C@@H](C(=O)N2CCCCC2)NC(=O)[C@H](CC)N(C)C(=O)[C@H](COC(C)(C)C)NC(=O)[C@H](CC(C)C)N(C)C(=O)[C@H](C)N(C)C(=O)[C@H](CC(C)C)N(C)C(=O)[C@H](Cc2ccccc2)N(C)C(=O)CN(C)C(=O)[C@H]([C@@H](C)O)NC(=O)[C@H](CC(C)C)N(C)C(=O)[C@H](C(C)C)NC(=O)[C@H](Cc2ccccc2)N(C)C1=O [pd045] ([NMeA]I[NMeF]V[NMeL]T[Sar][NMeF][NMeL][NMeA][NMeL]S(tBu)[NMeAbu]D-Piperidide; lactam N-14) in your reply.
# output 26.4

# input Output Mouse Hepatic Microsome CLh,int NADPH(-) of CCCCN1CC(=O)N[C@@H]([C@@H](C)CC)C(=O)N(C)[C@@H](CC(C)C)C(=O)N[C@H](C(=O)N2CCCCC2)CC(=O)N(C)[C@@H](C)C(=O)N(C)[C@@H](CC(C)C)C(=O)N[C@@H]([C@@H](C)O)C(=O)N(C)[C@@H](Cc2ccccc2)C(=O)N[C@@H](CC)C(=O)N(C)[C@@H](Cc2ccccc2)C(=O)N[C@@H](CC(C)C)C(=O)N(C)[C@@H]([C@@H](C)CC)C(=O)N[C@@H](CC(C)C)C1=O [pd103] ([NMeA][NMeL]T[NMeF][Abu][NMeF]L[NMeI]L[NBuGly]I[NMeL]D-Piperidide; lactam N-13)
# output 21.3
